- study.target: T1, human serum albumin (human, UniProt P02768 25-609)
- T1 construct: Bought serum albumin; also called HSA; antigen
- assay.text: SPR (Biacore), ratio of the off rates at the two pH
Entries and their measured Ratio pH 7/pH 5 (of kd) follow.
Write the value as a bare number.

Answered examples (4):
binder	Ratio pH 7/pH 5 (of kd)
Nanobody 4C5 (VHH) VHH: EVQLVESGGGLVQAGDSLRLSCAASGRPFSAYVMGWFRRAPGKEREFVGGINWNSANTWYTDSVLGRFTISKDNAKNTVYLQMNSLKPEDTAVYYCAAAGGVGYYRYERQYDYWGQGTQVTVSS	2.44
Nanobody 4B10 (VHH) VHH: EVQLVESGGGLVQAGDSLRLSCAASGRTFSSYAMGWFRQAPGTERQFVARITGKGDSTDYADSVRGRFTISRDNAKNTVYLQMNSLKPEDTAVYYCAADAFNSLLQAGRAEYWGQGTQVTVSS	0.87
Nanobody 4B1 (VHH) VHH: EVQLVESGGGLVQPGGSLRLSCVAAGFTLDYYAIGWFRQAPGKEREGVSCITSDGRTYYADSVKGRFTISRDMAKKMVYLQMNSLKPEDTAVYYCAAGACMGGSGYEADFGSWGQGTQVTVSS	0.88
Nanobody 4C8 (VHH) VHH: EVQLVESGGGLVQAGDSLRLSCAASGRTYTPYVMGWFRRAPGKEREFVGAVSWSGTNTWYTDSVKGRFTISRDNAKNTVYLQMNSLKPEDTAVYYCAAGDGVGIYRYEHQYDYWGQGTQVTVSS	3.35

The recorded Ratio pH 7/pH 5 (of kd) for Nanobody 4B8 (VHH) VHH: EVQLVESGGGLVQAGGSLRLSCAASGGTYSGNAMAWFRQAPGKEREFVAGIDWSSENTRYIDSVKGRFTISRDNAKNTMYLQMNSLKPEDTAVYYCAAGTSWGALASRLEAAYSSWGQGTQVTVSS is 2.43
